Every entry's value here was drawn from patent US11230591.

# Tested system: recombinant pentameric gH complex (Towne strain) (human cytomegalovirus, Towne strain) (UniProt P17176)
# Sequence (P17176 30-715, one chain of several): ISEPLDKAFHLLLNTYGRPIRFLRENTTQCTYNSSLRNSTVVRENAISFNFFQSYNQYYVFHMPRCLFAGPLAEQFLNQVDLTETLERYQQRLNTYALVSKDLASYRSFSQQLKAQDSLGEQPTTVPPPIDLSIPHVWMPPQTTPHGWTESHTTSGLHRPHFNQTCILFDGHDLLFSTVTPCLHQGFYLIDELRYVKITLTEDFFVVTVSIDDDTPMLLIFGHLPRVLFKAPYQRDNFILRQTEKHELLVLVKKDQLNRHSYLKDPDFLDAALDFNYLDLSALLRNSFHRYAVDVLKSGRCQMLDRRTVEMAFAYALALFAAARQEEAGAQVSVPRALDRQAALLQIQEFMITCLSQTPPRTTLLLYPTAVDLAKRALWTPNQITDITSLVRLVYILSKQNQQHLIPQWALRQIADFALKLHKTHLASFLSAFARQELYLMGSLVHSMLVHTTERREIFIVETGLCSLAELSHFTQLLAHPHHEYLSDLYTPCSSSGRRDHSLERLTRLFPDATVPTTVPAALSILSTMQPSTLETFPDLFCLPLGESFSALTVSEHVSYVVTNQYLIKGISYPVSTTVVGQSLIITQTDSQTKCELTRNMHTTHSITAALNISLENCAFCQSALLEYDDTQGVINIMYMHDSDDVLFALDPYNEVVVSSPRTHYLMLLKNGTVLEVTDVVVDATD
# Assay details: BLI competition on His-pentamer; competitor (antibody 2): 324.4
Provide the reported Pair-wise inhibition (%) of each item.
Note: unit % is implicit; provide only the numeric part.

In: Which measured Pair-wise inhibition (%) value corresponds to 1-85 (antibody, V domains shown) VH: QVHLVESGGGLVKPGRSLRLSCAASGFTFSDYYMAWIRQVPGKGLEWVSFISSSGRTIYYADSVKGRFTISRDNAKDSLYLQMHSLRAEDTAVYYCARDSYSKLVDIEAIEAFDIWGRGTMVTVSS VL: SYELAQPPSVSVAPGKTATIACGGDNIGGKSVHWYLQKAGQAPVLVISYDSDRPSGIPERFSGSNSGNTATLTISRVEAGDEADYFCQVWDRHGDHVVFGGGTKLTVL ?
Out: 17

In: Another binder to check: 2-18 (antibody, V domains shown) VH: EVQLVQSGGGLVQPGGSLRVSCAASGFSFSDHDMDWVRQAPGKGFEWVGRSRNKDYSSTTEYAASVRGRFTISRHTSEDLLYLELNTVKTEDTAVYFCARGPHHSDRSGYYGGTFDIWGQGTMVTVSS VL: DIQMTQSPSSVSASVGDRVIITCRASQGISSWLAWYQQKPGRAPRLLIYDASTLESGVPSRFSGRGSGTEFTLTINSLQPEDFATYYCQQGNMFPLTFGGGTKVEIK
Out: -1

In: Try this binder too: 3-16 (antibody, V domains shown) VH: QVQVVQSGAEVKKPGASVMVSCKTSGYRFTIYSIAWMRQAPGQGLEWMGSINTYNGNTKYAEKFQGRVTMSRDTSTSTAYMEVRSLGSADTAMYYCARDAENWGFFDDWGQGTLVTVSS VL: EIVLTQSPGTVSLSPGERVTLSCRASQSVGRHLAWYQQKPGQPPRLLIYGASTRATGVPDRFSGSGSETEFTLAISSLQSEDFALYYCQQYNTWPYTFGQGTKLEIK
Out: -5

In: Another: 1-32 (antibody, V domains shown) VH: QVKLVESGGGVVQPGRSLRLSCAGSGFAFDNYAMHWVRQAPGKGLEWVAVISLEGRNKYYAGPAKGRFSISRDNSRNTVHLQMNSLRPEDTAVYFCARDMRYYYDSNGHYRNRYGMDVWGQGTTVIVSS VL: DIQMTQSPSSLSASVGDSVTITCQASQDINQFVSWYQQKPGKPPKLLIYDASNLESGVPSRFSGSGSGTHFTFTISSLQPDDIATYYCQQYENLFTFGPGTKVDIK
Out: 6
